- experimental_system: UniProt A0A024AXB9
- experiment_notes: Functional biochemical assay to identify treatments for viral infectious disease that targets Zika NS2B-NS3 protease. Utilizing a direct enzyme activity measurement method, reading the fluorescence intensity is used to characterize the relative potency of inhibitors as IC50.
- Design: species or system PRVABC59
Residues, ends and D or L forms follow the SMILES beside them. *: point of attachment. pNA = O=[N+]([O-])c1ccc(N*)cc1
property_name: IC50

Request: Which IC50 value is on record for CN(C)[C@@H]1CCC[C@H](C(=O)Nc2cccc(CN)c2)C1 ?
Result: > 99.5 µM

Request: Query (compound): CCn1c(=O)c(N2CC[C@H](CO)C2)nc2cc(C(=O)N(C)C)ccc21 ; field requested: IC50
Result: > 99.5 µM

Request: If you can, please state the reported IC50 value of C[C@H]1CC[C@H](CS(=O)(=O)N[C@H](C(=O)Nc2cccc(CN)c2)c2ccc(OCc3ccccc3)cc2)CC1 .
Result: 15.4 µM

Request: If you can, please state the reported IC50 value of O=C(Nc1ccc2c(c1)CNC2)c1nc(-c2ccccc2)cs1 .
Result: > 25 µM

Request: If you can, please state the reported IC50 value of O=C(Nc1cc(Cl)cc(C(=O)Nc2ccc3c(c2)C(=O)OC3)c1)OCc1ccccc1 .
Result: > 99.5 µM

Request: // returns reported IC50 for input CC(C)NC(=O)C[C@H]1NCc2cc(NC(=O)c3cc(Cl)cc4[nH]ncc34)ccc21
Result: 0.185 µM

Request: # IC50 lookup, item CSCC[C@H](N)C(=O)N1CCC[C@H]1C(=O)Nc1ccc([N+](=O)[O-])cc1 (H-Met-Pro-pNA)
Result: > 99.5 µM

Request: Find the recorded IC50 belonging to NCc1cccc(NC(=O)c2cc(NC(=O)OCc3ccccc3)ccc2C(F)(F)F)c1 and report it.
Result: > 99.5 µM

Request: May I ask what IC50 has been recorded for O=C(N[C@H]1[C@H]2CCCCC[C@H]2[C@H]1C(=O)Nc1cccc(-n2nn[nH]c2=O)c1)OCc1ccccc1 ?
Result: 63 µM

Request: Using the record for O=C(O)c1cc(Cl)ccc1NS(=O)(=O)c1ccc(OCc2cccnc2)cc1 , report its IC50.
Result: > 99.5 µM

Request: Any idea what IC50 was measured for O=C(O)c1cc2c(cc1NS(=O)(=O)c1ccc(Oc3ccccc3Cl)cc1)CCC2 ?
Result: 17.5 µM

Request: Look at this compound and give its reported IC50. NCc1cccc(NC(=O)c2ccc(=O)n(Cc3ccccc3Cl)c2)c1
Result: > 99.5 µM

Request: Any idea what IC50 was measured for O=C(Nc1ccc2c(c1)CNC2)c1cc(C(F)(F)F)cc2[nH]ccc12 ?
Result: 1.07 µM

Request: I'd like to know its IC50. The compound in question is N=C(N)NCCc1ccc(NC(=O)C(=O)c2ccccc2)cc1
Result: > 198 µM

Request: For the compound shown here, CN1C(=O)CC[C@H]1c1nc2c(C(=O)Nc3ccc4c(c3)CNC4)cc(F)cc2[nH]1 , give the reported IC50.
Result: 0.264 µM

Request: What does the record list as IC50 for Cc1c(C(=O)Nc2cc(CCCN)ccn2)cc(C2CCC2)n1C ?
Result: > 99.5 µM

Request: Need IC50, item NCc1cccc(NC(=O)c2cc(Cl)cc3c2CCC3)c1
Result: 5.98 µM

Request: Name the reported IC50 value associated with the compound O=C(Nc1cc(-c2cccnc2)ccn1)c1nc(Br)n2c1CNCC2
Result: > 25 µM

Request: For the compound shown here, COc1ccc(CN2Cc3cc(NC(=O)c4cc(Cl)cc5[nH]ncc45)cc(Br)c3C2)cc1 , give the reported IC50.
Result: 9.89 µM

Request: Reported IC50, compound CCn1cc(-c2ccccc2)nc(N2CC[C@@H](CO)C2)c1=O : ____
Result: > 99.5 µM

Request: Could you tell me which IC50 is on file for CN(C)[C@H]1CCc2cc(-c3cccc(N4CCNC4=O)c3)ccc2NC1 ?
Result: > 99.5 µM

Request: Find the recorded IC50 belonging to CN1Cc2ccc(CNC(=O)[C@@H](NC(=O)OCc3ccccc3)c3ccc(OCc4ccccc4)cc3)cc2C1 and report it.
Result: 72.4 µM

Request: Request the reported IC50 associated with c1cnc2c(CN3CCC(c4c[nH]c5cccnc45)CC3)c[nH]c2c1
Result: 44.4 µM

Request: IC50 for O=C(O)c1cc(Cl)ccc1S(=O)(=O)N[C@H]1CC[C@H](Oc2cnccn2)CC1 ?
Result: > 99.5 µM

Request: Query: IC50; subject: COc1cc(Br)cc2c1NC(=O)[C@]2(Nc1ccc2c(c1)CNC2)C(N)=O
Result: 19.9 µM

Request: Consider the compound Cc1ocnc1COc1ccc(S(=O)(=O)Nc2ccc(Cl)cc2C(=O)O)cc1 and give its measured IC50.
Result: > 99.5 µM

Request: IC50 for Cc1nn(C)c(C)c1[C@H]1CCCN1C(=O)Nc1ccc2c(c1)CNC2 ?
Result: > 25 µM

Request: // returns reported IC50 for input COc1ccc(NS(=O)(=O)c2ccc(Cl)cc2C(=O)O)cc1OC1CCCC1
Result: > 99.5 µM

Request: Look up IC50: NCc1cccc(NC(=O)c2nc(=O)cc(NC(=O)OCc3ccccc3)[nH]2)c1
Result: > 99.5 µM

====

- experimental_system: Nonstructural protein 3 (Zika virus)
- Sequence (A0A024AXB9 whole entry): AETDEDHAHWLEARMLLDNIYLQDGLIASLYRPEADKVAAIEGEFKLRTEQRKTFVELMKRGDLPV
- experiment_notes: Functional biochemical assay to identify treatments for viral infectious disease that targets Zika NS2B-NS3 protease. Utilizing a direct enzyme activity measurement method, reading the fluorescence intensity is used to characterize the relative potency of inhibitors as IC50.
- Parameters: species or system PRVABC59
Could you please report measured IC50 for the items listed next?

Request: Can you look up the measured IC50 of COCC=Cc1cccc([C@@H](NC(=O)OCc2ccccc2)C(=O)Nc2cccc(CN)c2)c1 for me?
Result: 26.8 µM

Request: // returns reported IC50 for input NC1(c2cccc(NC(=O)c3cc(Cl)cc(NC(=O)OCc4ccccc4)c3)c2)CCOCC1
Result: > 99.5 µM

Request: // returns reported IC50 for input C[C@]1(OCCCO)C(=O)Nc2cc(F)cc(C(=O)Nc3ccc4c(c3)CNC4)c21
Result: 0.768 µM

Request: Value lookup for IC50; key = Cn1cc(C(=O)O)c(NS(=O)(=O)c2ccc(Oc3ccccc3Cl)cc2)n1
Result: > 99.5 µM

Request: Value lookup for IC50; key = c1ccc2oc(C3CCN(Cc4c[nH]c5ccccc45)CC3)nc2c1
Result: 60.6 µM

Request: Endpoint output: IC50 of Cc1cc(CN)cc(NC(=O)c2cc(Cl)cc(NC(=O)OCc3ccccc3)c2)c1 . Value?
Result: 5.16 µM

Request: Tell me the measured IC50 of Nc1ccc(NC(=O)c2cc(Cl)cc3[nH]ncc23)cn1 , please.
Result: > 99.5 µM

Request: Any idea what IC50 was measured for CCn1c(=O)c(N2C[C@H]3CN(C)CC[C@H]3C2)nc2ccccc21 ?
Result: > 99.5 µM

Request: Value lookup for IC50; key = C[C@H]1CN(C(=O)Cc2ccc(C=O)[nH]2)CCN1C1CCCC1
Result: > 99.5 µM

Request: I'd like to know its IC50. The compound in question is CC[C@H](Cc1nnn[nH]1)c1ccc(NC(=O)c2cc(Cl)cc(C3CC3)c2)cc1
Result: > 99.5 µM

Request: Request the reported IC50 associated with Cc1c(C(=O)Nc2cccc(CCN)c2)cc(C2CC2)n1C
Result: 88.3 µM

Request: Param item = c1ccc(-c2c[nH]nc2CN2CCC(c3cscn3)CC2)cc1 ; retrieve measured IC50.
Result: > 99.5 µM

Request: Tell me the measured IC50 of O=C(Nc1ccc2c(c1)CNC2)[C@H]1CCCc2[nH]ncc21 , please.
Result: > 25 µM

Request: Returns the measured IC50 for the input compound. Input: CCN(C)S(=O)(=O)N1CCC([C@H](NC(=O)OCc2ccccc2)C(=O)Nc2cccc(CN)c2)CC1
Result: > 99.5 µM

Request: Item CC(C)(C)c1nc2c(C(=O)Nc3ccc4c(c3)CNC4)cc(Br)cc2[nH]1 has what recorded IC50?
Result: 0.328 µM

Request: Requested field: IC50. Item: c1ccc2c(CN3CCN(c4ccncc4)CC3)c[nH]c2c1
Result: 98 µM

Request: Give the measured IC50 of COc1ccc2c(c1)c(C(=O)Nc1cccc(CN)c1)c(C)n2C1CCCC1 .
Result: > 99.5 µM

Request: Could you tell me which IC50 is on file for O=C(NC[C@H]1CCCO1)c1cc(Cl)ccc1NS(=O)(=O)c1ccc(Oc2ccccc2Cl)cc1 ?
Result: > 99.5 µM

Request: Find the recorded IC50 belonging to c1cncc(C2CC(NCc3n[nH]c4ccccc34)C2)c1 (stereo not drawn) and report it.
Result: > 99.5 µM

Request: Given NCCc1cc(C(=O)Nc2cc(-c3cccnc3)ccn2)no1 , state its recorded IC50.
Result: > 25 µM

Request: // returns reported IC50 for input NCc1cc(CCc2cc(Cl)cc(NC(=O)OCc3ccccc3)c2)cc(C(=O)O)c1
Result: > 99.5 µM

Request: What does the data say about its IC50? Entry: N#Cc1cc(Cl)cc(C(=O)Nc2cccc(-n3nn[nH]c3=O)c2)c1
Result: > 99.5 µM

Request: Bench note: what IC50 did CC(=O)N1CCN([C@H]2CC[C@H](NS(=O)(=O)c3ccc(Cl)cc3C(=O)O)CC2)CC1 show?
Result: > 99.5 µM

Request: IC50 for CCCCS(=O)(=O)N1CCC([C@H](NC(=O)OCc2ccccc2)C(=O)Nc2cccc(CN)c2)CC1 ?
Result: > 99.5 µM

Request: I have this compound here, Cc1c(C(=O)Nc2cc(C(=O)N3CC[C@H]3CO)ccn2)cc(C2CC2)n1C , and I need its recorded IC50.
Result: > 25 µM

Request: Can you share its IC50? I mean this compound: Cc1cc(C(=O)Nc2ccc3c(c2)CNC3)cc2nn[nH]c12
Result: 3.34 µM

Request: Report IC50 for CCC1CN(C(=O)c2cc(Cl)ccc2NS(=O)(=O)c2ccc(Oc3ccccc3Cl)cc2)C1 please.
Result: > 99.5 µM

Request: State the recorded IC50 for this entry: O=C(Nc1cc(-c2cccnc2)ccn1)c1csc(C[C@H]2CCCNC2)n1
Result: > 25 µM

FYI, the data here is from ChEMBL document CHEMBL5604062.
